Sourced from patent US20210155689A1

Target under test: T1, human LAG-3 (full length, on the cell surface) (human, UniProt P18627 23-525)
T1 construct: Full-length human LAG-3 expressed on cells; also called HEK293-hLAG-3; HEK293 cells transfected with LAG-3 gene
T1 sequence: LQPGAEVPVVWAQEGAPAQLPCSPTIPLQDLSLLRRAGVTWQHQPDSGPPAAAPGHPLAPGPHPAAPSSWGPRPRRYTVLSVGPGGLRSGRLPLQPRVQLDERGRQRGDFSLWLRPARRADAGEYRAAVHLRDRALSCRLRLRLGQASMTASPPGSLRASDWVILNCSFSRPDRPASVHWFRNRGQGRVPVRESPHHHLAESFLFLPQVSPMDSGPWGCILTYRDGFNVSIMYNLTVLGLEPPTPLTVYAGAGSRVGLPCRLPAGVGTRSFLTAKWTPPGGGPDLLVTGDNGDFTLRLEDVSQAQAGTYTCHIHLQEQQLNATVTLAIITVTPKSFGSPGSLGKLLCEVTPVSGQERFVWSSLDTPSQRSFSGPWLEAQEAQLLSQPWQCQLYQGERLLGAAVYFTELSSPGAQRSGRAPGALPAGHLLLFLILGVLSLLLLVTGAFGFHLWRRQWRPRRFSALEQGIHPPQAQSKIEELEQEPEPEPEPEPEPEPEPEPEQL
Measurement notes: FACS, HEK293-hLAG-3; 1.600 nM
// reported Mean fluorescence intensity per item

{"Binder": "405B8H3 (mouse antibody purified from hybridoma) (antibody, V domains shown, also called mAb103-405B8H3; 405B81-13) VH: QVQLQQSGAELVRPGASVTLSCKASGYTFTDYEMHWVKQTPVHGLEWIGATDPETGNSAYNQKFKGKAIMTADKSSSTAYMELRSLTSEDSAVYYCISTGWNDWGQGTSLTVSS VL: DIKMTQSPSSMYASLGERVTITCKASQDINSYLSWFQQKPGKSPKTLIYRADRLLDGVPSRFSGSGSGQDYSLTISSLEYGDMGIYYCLQYDEFPYTFGGGTKLEIK", "Mean fluorescence intensity, MFI": 99.4}
{"Binder": "105F1E10 (mouse antibody purified from hybridoma) (antibody, V domains shown, also called mAb009-105F1E10) VH: EVQLQQSGPELVKPGASVKMSCRASGYTFTDFKMHWMKQSHGKSLEWIGYIAPNNGGTAYNQKFRGKATLTVNESSNTAYMELRSLTSEDSAVYYCVDWDDVDYWGQGTTLTVSS VL: DIKMTQSPSSMYASLGERVTITCKASQDINSYLSWFQQKSGKSPKTLIYRANRLVDGVPSRFSGSGSGQDYSLTISSLEYEDMGIYYCLQYVEFPLTFGAGTKLELK", "Mean fluorescence intensity, MFI": 86.2}
{"Binder": "409D4E10 (mouse antibody purified from hybridoma) (antibody, V domains shown, also called mAb112-409D4E10) VH: QVQLQQSGAELVRPGASVTLSCKASGNTFTDYEMHWVKQTPVHGLEWIGATDPETDNTAYNQKFKGKAILTTDKSSSTAYMELRSLTSEDSAVYYCITSGWNDWGQGTSLTVSS VL: DIKMTQSPSSMYASLGERVTITCKASQDINSYLSWFQQKPGKSPKTLIYRANRLLDGVPSRFSGSGSGQDYSLTISSLEYEDMGIYYCLQYNEFPYTFGGGTKLEIK", "Mean fluorescence intensity, MFI": 48}
{"Binder": "556F6B8 (mouse antibody purified from hybridoma) (antibody, V domains shown, also called mAb123-556F6B8) VH: RVQLKQSGPGLVQPSQSLSITCTVSGFSLIKYGVHWVRQSPGEGLEWLGVIWRGGITDYNAAFMSRLSITKDNSKSQVFFKMNSLQADDTAIYYCAKWDGPLAMDYWGQGTSVTVSS VL: DIVMTQSHKFLSTSVGDRVSITCKASQDVGTTVAWYQQKPGQSPKLLIYWASTRHTGVPDRFTGSGSGTDFTLTISNVQSEDLADYFCQQYSSYPYTFGGGTKLEIK", "Mean fluorescence intensity, MFI": 43.5}
